Sourced from ChEMBL document CHEMBL1909046

- experimental_protocol: DRUGMATRIX: Calcium Channel Type L, Dihydropyridine radioligand binding (ligand: [3H] Nitrendipine)
- Format: cell membranes, Rattus norvegicus, Wistar, Cerebral cortex, Membrane
- experimental_parameters: Not Active = under 50% inhibition at 10 µM
quantity_measured: Ki

>  <molecule>
CCCOc1ccccc1-c1nc2nn[nH]c2c(=O)[nH]1

>  <endpoint_result>
Not Active

$$$$
>  <molecule>
CCOc1ccc(NC(C)=O)cc1

>  <endpoint_result>
Not Active

$$$$
>  <molecule>
Cc1c(C)c2c(c(C)c1O)CC[C@@](C)(CCC[C@H](C)CCC[C@H](C)CCCC(C)C)O2

>  <endpoint_result>
Not Active

$$$$
>  <molecule>
CCCCN1CCCC[C@H]1C(=O)Nc1c(C)cccc1C

>  <endpoint_result>
Not Active

$$$$
>  <molecule>
c1ccc2c(c1)c1cccc3ccc4cccc2c4c31 [BENZO[E]PYRENE]

>  <endpoint_result>
Not Active

$$$$
>  <molecule>
CC1(C)O[C@@H]2C[C@H]3[C@@H]4CCC5=CC(=O)CC[C@]5(C)[C@@]4(F)[C@@H](O)C[C@]3(C)[C@]2(C(=O)CCl)O1 [HALCINONIDE]

>  <endpoint_result>
Not Active

$$$$
>  <molecule>
CC(C)[C@@]1(NC(=O)[C@@H]2C[C@@H]3c4cccc5[nH]cc(c45)C[C@H]3N(C)C2)O[C@@]2(O)[C@@H]3CCCN3C(=O)[C@H](Cc3ccccc3)N2C1=O.CS(=O)(=O)O [DIHYDROERGOCRISTINE MESYLATE]

>  <endpoint_result>
Not Active

$$$$
>  <molecule>
CC(C)CN(C[C@@H](O)[C@H](Cc1ccccc1)NC(=O)O[C@H]1CCOC1)S(=O)(=O)c1ccc(N)cc1

>  <endpoint_result>
Not Active

$$$$
>  <molecule>
O=C1CC[C@@H](N2C(=O)c3ccccc3C2=O)C(=O)N1

>  <endpoint_result>
Not Active

$$$$
>  <molecule>
O=NN(CCCl)C(=O)NC1CCCCC1

>  <endpoint_result>
Not Active

$$$$
>  <molecule>
C[C@H](CS)C(=O)N1CCC[C@H]1C(=O)O

>  <endpoint_result>
Not Active

$$$$
>  <molecule>
Nc1c(Br)cc(Br)cc1CN[C@H]1CC[C@H](O)CC1

>  <endpoint_result>
Not Active

$$$$
>  <molecule>
Cc1ccc2cc3c(ccc4ccccc43)c3c2c1CC3

>  <endpoint_result>
Not Active

$$$$
>  <molecule>
NS(=O)(=O)c1cc2c(cc1Cl)NC(C(Cl)Cl)NS2(=O)=O (stereo unspecified) [TRICHLORMETHIAZIDE]

>  <endpoint_result>
Not Active

$$$$
>  <molecule>
Cc1onc(-c2ccccc2Cl)c1C(=O)N[C@@H]1C(=O)N2[C@@H]1SC(C)(C)[C@@H]2C(=O)O

>  <endpoint_result>
Not Active

$$$$
>  <molecule>
CC(C)(C)NCC(O)c1cc(Cl)c(N)c(Cl)c1 (stereo unspecified)

>  <endpoint_result>
Not Active

$$$$
>  <molecule>
CCOC(=O)N1CCC(=C2c3ccc(Cl)cc3CCc3cccnc32)CC1

>  <endpoint_result>
Not Active

$$$$
>  <molecule>
CN(C)CCCN1c2ccccc2Sc2ccccc21

>  <endpoint_result>
Not Active

$$$$
>  <molecule>
c1ccc(Nc2ccc(Nc3ccccc3)cc2)cc1

>  <endpoint_result>
Not Active

$$$$
>  <molecule>
N[C@@H]1[C@H]2CN(c3nc4c(cc3F)c(=O)c(C(=O)O)cn4-c3ccc(F)cc3F)C[C@@H]12

>  <endpoint_result>
Not Active

$$$$
>  <molecule>
NC1=NC(=O)C(c2ccccc2)O1 (stereo unspecified)

>  <endpoint_result>
Not Active

$$$$
>  <molecule>
CCCCc1nc(Cl)c(CO)n1Cc1ccc(-c2ccccc2-c2nnn[nH]2)cc1

>  <endpoint_result>
Not Active

$$$$
>  <molecule>
CN(Cc1ccc(C(C)(C)C)cc1)Cc1cccc2ccccc12

>  <endpoint_result>
Not Active

$$$$
>  <molecule>
CC(C)C(=O)Nc1ccc([N+](=O)[O-])c(C(F)(F)F)c1 [FLUTAMIDE]

>  <endpoint_result>
Not Active

$$$$
>  <molecule>
Nc1nc2ccc(OC(F)(F)F)cc2s1

>  <endpoint_result>
Not Active

$$$$
>  <molecule>
O=c1[nH]c(=O)n([C@H]2C[C@H](O)[C@@H](CO)O2)cc1I

>  <endpoint_result>
Not Active

$$$$
>  <molecule>
CC(NC(C)(C)C)C(=O)c1cccc(Cl)c1 (stereo unspecified)

>  <endpoint_result>
Not Active

$$$$
>  <molecule>
CC1=C2C(=CO[C@H](C)[C@H]2C)C(O)=C(C(=O)O)C1=O

>  <endpoint_result>
Not Active

$$$$
>  <molecule>
Nc1c2c(nc3ccccc13)CCCC2

>  <endpoint_result>
Not Active

$$$$
>  <molecule>
Cc1oncc1C(=O)Nc1ccc(C(F)(F)F)cc1 [LEFLUNOMIDE]

>  <endpoint_result>
Not Active

$$$$
>  <molecule>
C=C(C)C1(O)OC(=O)C=C1OC (stereo unspecified)

>  <endpoint_result>
Not Active

$$$$
>  <molecule>
CC1Cc2ccccc2N1NC(=O)c1ccc(Cl)c(S(N)(=O)=O)c1 (stereo unspecified) [INDAPAMIDE]

>  <endpoint_result>
Not Active

$$$$
>  <molecule>
O=C(O)CCCc1ccc(N(CCCl)CCCl)cc1

>  <endpoint_result>
Not Active

$$$$
>  <molecule>
CCC(C)n1ncn(-c2ccc(N3CCN(c4ccc(OCC5COC(Cn6cncn6)(c6ccc(Cl)cc6Cl)O5)cc4)CC3)cc2)c1=O (stereo unspecified)

>  <endpoint_result>
Not Active

$$$$
>  <molecule>
COc1cc2nc(N3CCN(C(=O)C4COc5ccccc5O4)CC3)nc(N)c2cc1OC (stereo unspecified)

>  <endpoint_result>
Not Active

$$$$
>  <molecule>
O=C(CCCN1CC=C(n2c(=O)[nH]c3ccccc32)CC1)c1ccc(F)cc1

>  <endpoint_result>
Not Active

$$$$
